Task for the reader: assign each of the following compounds its reported IC50.
# System: HepG2
# assay_info: Cytotoxicity against human HepG2 cells by MTT assay
# Type: functional, cell-based
Give bare numbers, in µg/mL.

Solved cases below.
compound_structure_string=N#Cc1c(NCc2ccccc2)c(F)c2nc(N)nc(N)c2c1NCc1ccccc1 metric=IC50 numeric_value=13.4
compound_structure_string=COc1ccc(Nc2c(C#N)c(F)c3c(N)nc(N)nc3c2Cl)cc1 metric=IC50 numeric_value=10.2

Quick one: give me IC50 for each item below, same order please.
1. N#Cc1c(F)c(F)c2nc(N)nc(N)c2c1F
2. CC(C)(C)Nc1c(C#N)c(F)c2c(N)nc(N)nc2c1F
3. N#Cc1c(Cl)c(Cl)c2nc(N)nc(N)c2c1Cl
4. N#Cc1c(NCc2ccccc2)c(Cl)c2nc(N)nc(N)c2c1F
5. CCN(CC)c1c(C#N)c(F)c2c(N)nc(N)nc2c1F
6. N#Cc1c(OCc2ccccc2)c(F)c2nc(N)nc(N)c2c1OCc1ccccc1

Reply:
5
16.2
2.5
1.4
1.3
84

Hi! Can you tell me IC50 for each of these compounds?
1. N#Cc1c(Nc2ccc(Cl)cc2)c(F)c2nc(N)nc(N)c2c1F
2. N#Cc1c(Nc2ccccc2)c(F)c2nc(N)nc(N)c2c1F

Reply:
[1, 1.4]

---

Please go through the items and note down their IC50.
# Tested on: HL-60
# assay_info: Cytotoxicity against human HL60 cells by MTT assay
# Assay type: functional, cell-based
Give bare numbers, in µg/mL.

compound_structure_string=CCCCNc1c(C#N)c(NCCCC)c2c(N)nc(N)nc2c1F numeric_value=1.4
compound_structure_string=CC(C)(C)Nc1c(C#N)c(F)c2c(N)nc(N)nc2c1Cl numeric_value=5.2
compound_structure_string=N#Cc1c(F)c(Cl)c2nc(N)nc(N)c2c1F numeric_value=0.04
compound_structure_string=N#Cc1c(NCc2ccccc2)c(Cl)c2nc(N)nc(N)c2c1F numeric_value=0.3
compound_structure_string=CCN(CC)c1c(C#N)c(F)c2c(N)nc(N)nc2c1Cl numeric_value=2.3
compound_structure_string=N#Cc1c(NCc2ccccc2)c(F)c2nc(N)nc(N)c2c1NCc1ccccc1 numeric_value=7.2

The following compounds each have a reported value; give each one's IC50.
1. N#Cc1c(N)c(Cl)c2nc(N)nc(N)c2c1Cl
2. CCCSc1c(C#N)c(SCCC)c2c(N)nc(N)nc2c1Cl
3. N#Cc1c(NCc2ccccc2)c(Cl)c2nc(N)nc(N)c2c1NCc1ccccc1
4. CCCCNc1c(C#N)c(NCCCC)c2c(N)nc(N)nc2c1Cl
5. N#Cc1c(Sc2ccccc2)c(Cl)c2nc(N)nc(N)c2c1Sc1ccccc1
6. N#Cc1c(NCc2ccccc2)c(F)c2nc(N)nc(N)c2c1F
7. N#Cc1c(Nc2ccccc2)c(F)c2nc(N)nc(N)c2c1F

Reply:
[6.7, 7.7, 8.5, 0.7, 26, 14, 40]

Working through the 4 compounds below one at a time, give IC50 for each.
1. N#Cc1c(Oc2ccccc2)c(Cl)c2nc(N)nc(N)c2c1Oc1ccccc1
2. CCN(CC)c1c(C#N)c(F)c2c(N)nc(N)nc2c1F
3. CC(C)(C)Nc1c(C#N)c(F)c2c(N)nc(N)nc2c1F
4. COc1ccc(Nc2c(C#N)c(F)c3c(N)nc(N)nc3c2Cl)cc1

Reply:
1: 88; 2: 6.4; 3: 18; 4: 2.2

State recorded IC50 for all listed compounds.
1. N#Cc1c(Cl)c(Cl)c2nc(N)nc(N)c2c1Cl
2. N#Cc1c(OCc2ccccc2)c(F)c2nc(N)nc(N)c2c1OCc1ccccc1
3. N#Cc1c(F)c(F)c2nc(N)nc(N)c2c1F
4. N#Cc1c(Nc2ccccc2)c(Cl)c2nc(N)nc(N)c2c1F

Reply:
[19, 62, 51, 47]

Task item: Suppose we examine the compound `N#Cc1c(Nc2ccc(Cl)cc2)c(F)c2nc(N)nc(N)c2c1F` ; what IC50 value has been reported?
Reply: 35

// data source = ChEMBL document CHEMBL1208736
